Cited source: ChEMBL document CHEMBL2346618

# protocol: Cytotoxicity against human HuH7 cells
# Type: cell-based, Huh-7
# assayConditions: HuH7 cells
Please go through the items and note down their CC50.
Reply numerically in µM, unit not repeated.

Given the entry COc1nc(N)nc2c1ccn2[C@@H]1O[C@H](COP(=O)(N[C@@H](C)C(=O)OCC(C)(C)C)Oc2cccc3ccccc23)[C@@H](O)[C@@]1(C)O (stereo partly specified) , report its measured CC50.
27

Given the entry COc1nc(N)nc2c1ccn2[C@@H]1O[C@H](COP(=O)(N[C@@H](C)C(=O)OC2CCCCC2)Oc2cccc3ccccc23)[C@@H](O)[C@@]1(C)O (single isomer, unassigned; slow eluting) , report its measured CC50.
13

Given the entry COc1nc(N)nc2c1ncn2[C@@H]1O[C@H](COP(=O)(N[C@@H](C)C(=O)OCc2ccccc2)Oc2cccc3ccccc23)[C@@H](O)[C@@]1(C)O (stereo partly specified) , report its measured CC50.
11

Given the entry COc1nc(N)nc2c1ccn2[C@@H]1O[C@H](COP(=O)(N[C@@H](C)C(=O)OCc2ccccc2)Oc2cccc3ccccc23)[C@@H](O)[C@@]1(C)O (stereo partly specified) , report its measured CC50.
27
